- Test system: Enterococcus faecalis
- protocol.details: Antibacterial activity against Enterococcus faecalis
- Format: functional
property.measured: MIC (µg/mL)
Give just the numeric value; µg/mL need not be written.

### Prompt Hello, please tell me recorded MIC for this one: CC1/C(=N/N=C/c2ccccc2O)CC(c2ccccc2)NC1c1ccccc1 (centres undefined)
### Response 50

### Prompt Hello, please tell me recorded MIC for this one: CC1/C(=N/N=C/c2ccccc2[N+](=O)[O-])CC(c2ccccc2)NC1c1ccccc1 (centres undefined)
### Response 100

### Prompt Hello, please tell me recorded MIC for this one: C/C(=N\N=C1/CC(c2ccccc2)NC(c2ccccc2)C1C)c1ccccc1 (mixture of isomers)
### Response 25

### Prompt Hello, please tell me recorded MIC for this one: CC1/C(=N/N=C2\CC(c3ccccc3)NC(c3ccccc3)C2C)CC(c2ccccc2)NC1c1ccccc1 (mixture of isomers)
### Response 100
